Record form. Attribute: Abs Max. Fill in for each entry.
# method description: Spectral properties (absorption/emission) of new pyrenyloxy sulfonic acid dyes, Table 4
# Type: physicochemical
# assay context: second (shorter-wavelength) maximum; 50 mM aqueous potassium phosphate buffer at pH 8.0
Structures can show the parent of a compound that is named as a salt.
Answers are plain numbers, in nm.

Known results for compounds:
>>> df
                                   compound  value_unit  reported_value
0  CC(C)(C)OC(=O)N1CCC[C@H]1C(=O)NCCCCCNC(=O)COc1cc(S(=O)(=O)O)c2ccc3c(S(=O)(=O)O)cc(S(=O)(=O)O)c4ccc1c2c43          nm             377
1  O=C(O)COc1cc(S(=O)(=O)[O-])c2ccc3c(S(=O)(=O)[O-])cc(S(=O)(=O)[O-])c4ccc1c2c43.[Na+].[Na+].[Na+]          nm             374
2  NCCCCCNC(=O)COc1cc(S(=O)(=O)O)c2ccc3c(S(=O)(=O)O)cc(S(=O)(=O)O)c4ccc1c2c43 [Compound 4, trisodium salt]          nm             377

Each of the following entries comes with a recorded value; kindly state Abs Max for each.
1. O=C(COc1cc(S(=O)(=O)O)c2ccc3c(S(=O)(=O)O)cc(S(=O)(=O)O)c4ccc1c2c43)NCCO
2. NNC(=O)COc1cc(S(=O)(=O)[O-])c2ccc3c(S(=O)(=O)[O-])cc(S(=O)(=O)[O-])c4ccc1c2c43.[Na+].[Na+].[Na+]
3. N#CCCCCCNC(=O)COc1cc(S(=O)(=O)O)c2ccc3c(S(=O)(=O)O)cc(S(=O)(=O)O)c4ccc1c2c43
4. N.N.N.NNC(=O)COc1cc(S(=O)(=O)O)c2ccc3c(S(=O)(=O)O)cc(S(=O)(=O)O)c4ccc1c2c43
5. NNC(=O)COc1cc(S(=O)(=O)O)c2ccc3c(S(=O)(=O)O)cc(S(=O)(=O)O)c4ccc1c2c43

Response:
377
377
377
376
377
